- Measurement target: CathepsinG, from human neutrophils (Homo sapiens)
- Sequence (P08311 21-244): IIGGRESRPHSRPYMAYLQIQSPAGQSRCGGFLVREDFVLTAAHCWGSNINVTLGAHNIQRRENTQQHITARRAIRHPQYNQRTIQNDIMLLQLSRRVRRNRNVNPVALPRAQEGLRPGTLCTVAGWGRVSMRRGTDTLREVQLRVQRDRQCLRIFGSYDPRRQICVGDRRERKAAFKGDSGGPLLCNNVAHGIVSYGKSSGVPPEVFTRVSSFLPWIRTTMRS
- Assay name: Enzymatic assay, cathepsin G
- Experimental setup: Cathepsin G IC50
Where a SMILES comes first, the peptide text is derived from it.
Readout label: IC50 (µM)
Please state the figure in µM; there is no need to write the unit.

[
  {
    "Compound": "CCCC[C@@H]1NC(=O)[C@@H]2CCCN2C(=O)[C@H]2CCCN2C(=O)[C@H](Cc2ccc(O)cc2)NC(=O)[C@@H]2CSSC[C@H](NC1=O)C(=O)N[C@@H]([C@@H](C)O)C(=O)N[C@@H](CCCCN)C(=O)N[C@@H](CO)C(=O)N[C@@H](CC(=O)O)C(=O)N1CCC[C@H]1C(=O)N1CCC[C@H]1C(=O)N[C@@H]([C@@H](C)CC)C(=O)N2 [Ex. 44] (HELM PEPTIDE1{[Nle].C.T.K.S.D.P.P.I.C.Y.[dP].P}$PEPTIDE1,PEPTIDE1,2:R3-10:R3|PEPTIDE1,PEPTIDE1,1:R1-13:R2$$$V2.0)",
    "Unit label": "µM",
    "IC50": 0.031
  }
]

We next turn to a different compound, shown below.
Fill in: IC50 of CCCC[C@@H]1NC(=O)[C@H](CC(=O)O)NC(=O)[C@H]2CCCN2C(=O)[C@H](Cc2ccc(O)cc2)NC(=O)[C@@H]2CSSC[C@H](NC1=O)C(=O)N[C@@H]([C@@H](C)O)C(=O)N[C@@H](C)C(=O)N[C@@H](CO)C(=O)N[C@@H]([C@@H](C)CC)C(=O)N1CCC[C@H]1C(=O)N1CCC[C@H]1C(=O)N[C@@H](CCC(N)=O)C(=O)N2 [Ex. 121] (HELM PEPTIDE1{[Nle].C.T.A.S.I.P.P.Q.C.Y.[dP].D}$PEPTIDE1,PEPTIDE1,2:R3-10:R3|PEPTIDE1,PEPTIDE1,1:R1-13:R2$$$V2.0) is ___
11.2

====

Here, each record is paired with measured Urokinase at 100 μM % data.
- Measurement target: Urokinase from human urine (Homo sapiens)
- Assay name: Enzymatic assay, urokinase
Where a SMILES comes first, the peptide text is derived from it.
Your reply should be a number followed by the unit it is expressed in.

[
  {
    "Compound": "C[C@@H](O)[C@@H]1NC(=O)[C@@H]2CSSC[C@H](NC(=O)[C@H](CC3CCCCC3)NC(=O)[C@@H]3CCCN3C(=O)[C@@H]3CCCN3C(=O)[C@H](CC(=O)O)NC(=O)[C@H](CO)NC(=O)[C@H](CCCCN)NC1=O)C(=O)N[C@@H](CO)C(=O)N1CCC[C@@H]1C(=O)N1CCC[C@H]1C(=O)N[C@@H](Cc1ccccc1)C(=O)N2 [Ex. 16] (HELM PEPTIDE1{F.C.T.K.S.D.P.P.[Cha].C.S.[dP].P}$PEPTIDE1,PEPTIDE1,2:R3-10:R3|PEPTIDE1,PEPTIDE1,1:R1-13:R2$$$V2.0)",
    "Urokinase at 100 μM %": "3.2%"
  }
]

We next turn to a different compound, shown below.
Fill in: Urokinase at 100 μM % of CCCC[C@@H]1NC(=O)[C@H]([C@@H](C)O)NC(=O)[C@@H]2CSSC[C@H](NC(=O)[C@H]([C@@H](C)CC)NC(=O)[C@@H]3CCCN3C(=O)[C@@H]3CCCN3C(=O)[C@H](CC(=O)O)NC(=O)[C@H](CO)NC1=O)C(=O)N[C@@H](Cc1ccc(O)cc1)C(=O)N1CCC[C@@H]1C(=O)N1CCC[C@H]1C(=O)N[C@@H](Cc1ccccc1)C(=O)N2 [Ex. 23] (HELM PEPTIDE1{F.C.T.[Nle].S.D.P.P.I.C.Y.[dP].P}$PEPTIDE1,PEPTIDE1,2:R3-10:R3|PEPTIDE1,PEPTIDE1,1:R1-13:R2$$$V2.0) is ___
9%

====

Here, each record is paired with measured FXa at 100 μM % data.
- Measurement target: Coagulation Factor Xa, from uman plasma (Homo sapiens)
- Sequence (P00742 235-488 limits assumed): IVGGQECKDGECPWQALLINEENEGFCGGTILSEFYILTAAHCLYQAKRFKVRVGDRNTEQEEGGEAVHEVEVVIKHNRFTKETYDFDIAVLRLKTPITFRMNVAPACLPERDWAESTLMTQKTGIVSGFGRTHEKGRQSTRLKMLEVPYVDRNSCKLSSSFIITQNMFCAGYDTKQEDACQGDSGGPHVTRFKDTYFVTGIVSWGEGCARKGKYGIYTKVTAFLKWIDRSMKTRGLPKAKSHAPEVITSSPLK
- Sequence (P00742 41-179 limits assumed): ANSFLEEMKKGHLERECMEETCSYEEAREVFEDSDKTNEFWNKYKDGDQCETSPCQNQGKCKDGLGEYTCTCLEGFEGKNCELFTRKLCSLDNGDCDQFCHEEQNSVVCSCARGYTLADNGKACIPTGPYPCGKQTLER
- Assay name: Enzymatic assay, coagulation factor Xa
Where a SMILES comes first, the peptide text is derived from it.
Please state the figure in %; there is no need to write the unit.

[
  {
    "Compound": "CC[C@H](C)[C@@H]1NC(=O)[C@@H]2CCCN2C(=O)[C@@H]2CCCN2C(=O)[C@H](CC(=O)O)NC(=O)[C@H](CO)NC(=O)[C@H](CCCCN)NC(=O)[C@H]([C@@H](C)O)NC(=O)[C@@H]2CSSC[C@H](NC1=O)C(=O)N[C@@H](CC(=O)O)C(=O)N1CCC[C@@H]1C(=O)N1CCC[C@H]1C(=O)N[C@@H](Cc1ccccc1)C(=O)N2 [Ex. 2] (HELM PEPTIDE1{F.C.T.K.S.D.P.P.I.C.D.[dP].P}$PEPTIDE1,PEPTIDE1,2:R3-10:R3|PEPTIDE1,PEPTIDE1,1:R1-13:R2$$$V2.0)",
    "Unit label": "%",
    "Result number": 5.3
  },
  {
    "Compound": "CC[C@H](C)[C@@H]1NC(=O)[C@@H]2CCCN2C(=O)[C@@H]2CCCN2C(=O)[C@H](CC(=O)O)NC(=O)[C@H](CO)NC(=O)[C@H](CCCCN)NC(=O)[C@H]([C@@H](C)O)NC(=O)[C@H](CCC(=O)O)NC(=O)[C@H](CCCNC(=N)N)NC(=O)[C@@H]2CCCN2C(=O)[C@H]2CCCN2C(=O)[C@H](Cc2ccccc2)NC(=O)[C@H](CCCNC(=N)N)NC1=O [Ex. 7] (HELM PEPTIDE1{R.E.T.K.S.D.P.P.I.R.F.[dP].P}$PEPTIDE1,PEPTIDE1,1:R1-13:R2$$$V2.0)",
    "Unit label": "%",
    "Result number": 11.7
  },
  {
    "Compound": "C[C@@H]1NC(=O)[C@H]([C@@H](C)O)NC(=O)[C@@H]2CSSC[C@H](NC(=O)[C@H](CCC(N)=O)NC(=O)[C@@H]3CCCN3C(=O)[C@@H]3CCCN3C(=O)[C@H](CC3CCCCC3)NC(=O)[C@H](CO)NC1=O)C(=O)N[C@@H](Cc1ccccc1)C(=O)N1CCC[C@@H]1C(=O)N1CCC[C@H]1C(=O)N[C@@H](CCc1ccccc1)C(=O)N2 [Ex. 155] (HELM PEPTIDE1{[O=C([C@H](CCc1ccccc1)N[*:1])[*:2]].C.T.A.S.[Cha].P.P.Q.C.F.[dP].P}$PEPTIDE1,PEPTIDE1,2:R3-10:R3|PEPTIDE1,PEPTIDE1,1:R1-13:R2$$$V2.0)",
    "Unit label": "%",
    "Result number": 9
  }
]

Fill in: FXa at 100 μM % of CC[C@H](C)[C@@H]1NC(=O)[C@@H]2CCCN2C(=O)[C@@H]2CCCN2C(=O)[C@H](CC(=O)O)NC(=O)[C@H](CO)NC(=O)[C@H](CCCCN)NC(=O)[C@H]([C@@H](C)O)NC(=O)[C@@H]2CSSC[C@H](NC1=O)C(=O)N[C@@H]([C@@H](C)O)C(=O)N1CCC[C@@H]1C(=O)N1CCC[C@H]1C(=O)N[C@@H](C1CCCCC1)C(=O)N2 [Ex. 38] (HELM PEPTIDE1{[O=C([C@@H](N[*:1])C1CCCCC1)[*:2]].C.T.K.S.D.P.P.I.C.T.[dP].P}$PEPTIDE1,PEPTIDE1,2:R3-10:R3|PEPTIDE1,PEPTIDE1,1:R1-13:R2$$$V2.0) is ___
0

====

- Measurement target: Chymotrypsin, from human pancreas (Homo sapiens, UniProt P17538)
- Sequence (P17538 19-263): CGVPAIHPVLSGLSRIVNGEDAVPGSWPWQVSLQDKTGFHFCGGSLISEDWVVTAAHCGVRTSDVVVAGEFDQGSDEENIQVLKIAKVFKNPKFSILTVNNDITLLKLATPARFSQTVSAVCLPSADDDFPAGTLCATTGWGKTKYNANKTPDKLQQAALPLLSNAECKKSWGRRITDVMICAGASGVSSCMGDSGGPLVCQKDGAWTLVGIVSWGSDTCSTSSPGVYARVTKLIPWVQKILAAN
- Assay name: Enzymatic assay, chymotrypsin
- Experimental setup: at 100 μM
Where a SMILES comes first, the peptide text is derived from it.
Here, each record is paired with measured Chymotrypsin at 100 μM % data.
Please state the figure in %; there is no need to write the unit.

[
  {
    "Molecule": "CC[C@H](C)[C@@H]1NC(=O)[C@@H]2CCCN2C(=O)[C@@H]2CCCN2C(=O)[C@H](CC(=O)O)NC(=O)[C@H](CO)NC(=O)[C@H](CCCCN)NC(=O)[C@H]([C@@H](C)O)NC(=O)[C@@H]2CSSC[C@H](NC1=O)C(=O)N[C@@H](CC(=O)O)C(=O)N1CCC[C@@H]1C(=O)N1CCC[C@H]1C(=O)N[C@@H](C1CCCCC1)C(=O)N2 [Ex. 39] (HELM PEPTIDE1{[O=C([C@@H](N[*:1])C1CCCCC1)[*:2]].C.T.K.S.D.P.P.I.C.D.[dP].P}$PEPTIDE1,PEPTIDE1,2:R3-10:R3|PEPTIDE1,PEPTIDE1,1:R1-13:R2$$$V2.0)",
    "Unit label": "%",
    "Result number": 7
  },
  {
    "Molecule": "CC[C@H](C)[C@@H]1NC(=O)[C@@H]2CCCN2C(=O)[C@@H]2CCCN2C(=O)[C@H](CC(=O)O)NC(=O)[C@H](CO)NC(=O)[C@H](CCCCN)NC(=O)[C@H]([C@@H](C)O)NC(=O)[C@@H]2CSSC[C@H](NC1=O)C(=O)N[C@@H]([C@@H](C)O)C(=O)N1CCC[C@@H]1C(=O)N1CCC[C@H]1C(=O)N[C@@H](CCc1ccccc1)C(=O)N2 [Ex. 28] (HELM PEPTIDE1{[O=C([C@H](CCc1ccccc1)N[*:1])[*:2]].C.T.K.S.D.P.P.I.C.T.[dP].P}$PEPTIDE1,PEPTIDE1,2:R3-10:R3|PEPTIDE1,PEPTIDE1,1:R1-13:R2$$$V2.0)",
    "Unit label": "%",
    "Result number": 32
  },
  {
    "Molecule": "CC[C@H](C)[C@@H]1NC(=O)[C@@H]2CCCN2C(=O)[C@H]2CCCN2C(=O)[C@H](CCCNC(=N)N)NC(=O)[C@@H]2CSSC[C@H](NC1=O)C(=O)N[C@@H]([C@@H](C)O)C(=O)N[C@@H](CCCCN)C(=O)N[C@@H](CO)C(=O)N[C@@H](CC(=O)O)C(=O)N1CCC[C@H]1C(=O)N1CCC[C@H]1C(=O)N[C@@H](CC1CCCCC1)C(=O)N2 [Ex. 20] (HELM PEPTIDE1{I.C.T.K.S.D.P.P.[Cha].C.R.[dP].P}$PEPTIDE1,PEPTIDE1,2:R3-10:R3|PEPTIDE1,PEPTIDE1,1:R1-13:R2$$$V2.0)",
    "Unit label": "%",
    "Result number": 0
  }
]

We next turn to a different molecule, shown below.
Lookup: Chymotrypsin at 100 μM % / Chymotrypsin, from human pancreas (Homo sapiens, UniProt P17538) / CCCCCCCC[C@@H]1NC(=O)[C@@H]2CCCN2C(=O)[C@H]2CCCN2C(=O)[C@H](Cc2ccc(O)cc2)NC(=O)[C@H]([C@@H](C)O)NC(=O)[C@H](CCC(N)=O)NC(=O)[C@@H]2CCCN2C(=O)[C@@H]2CCCN2C(=O)[C@H]([C@@H](C)CC)NC(=O)[C@H](CO)NC(=O)[C@H](C)NC(=O)[C@H]([C@@H](C)O)NC(=O)[C@H](CCC(N)=O)NC1=O [Ex. 154] (HELM PEPTIDE1{[CCCCCCCC[C@H](N[*:1])C(=O)[*:2]].Q.T.A.S.I.P.P.Q.T.Y.[dP].P}$PEPTIDE1,PEPTIDE1,1:R1-13:R2$$$V2.0)
4

Recorded values, source patent US8658604B2.
